Recorded ELISA(Avg) for the following binders
biological target: T1, SARS-CoV-2 S1 protein (SARS-CoV-2, UniProt P0DTC2 16-685); assay: phage ELISA screen on S1, mean
T1 construct: also called SARS-CoV-2 Spike Glycoprotein S1; S1 (subunit 1)
Please give a number only; it is taken to be in fold over background.

binder	ELISA(Avg) [fold over background]
2-17 (antibody, V domains shown, also called variant 2-17) VH: EVQLLESGGGLVQPGGSLRLSCAASGFTFSNYAMSWVRQAPGKGLEWVSAISGSAGSTYYADSVKGRFTISRDNSKNTLYLQMNSLRAEDTAVYYCARVRQGLRRTWYYFDYWGQGTLVTVSS VL: DIQMTQSPSSLSASVGDRVTITCTGTSSDVGSSNLVSWYQQKPGKAPKLLIYEGSKRPSGVPSRFSGSGSGTDFTLTISSLQPEDFATYYCCSYAGSLYVFGQGTKVEIK	3.5
2-16 (antibody, V domains shown, also called variant 2-16) VH: EVQLLESGGGLVQPGGSLRLSCAASGFTFSSYAMSWVRQAPGKGLEWVSVISGSGGSTYYADSVKGRFTISRDNSKNTLYLQMNSLRAEDTAVYYCAREGYRDYLWYFDLWGQGTLVTVSS VL: DIQMTQSPSSLSASVGDRVTITCTGTSSDVGSYDLVSWYQQKPGKAPKLLIYEGNKRPSGVPSRFSGSGSGTDFTLTISSLQPEDFATYYCCSYAGSSVVFGQGTKVEIK	7.1

Could you now consider this next binder?
Supply recorded ELISA(Avg) for 2-8 (antibody, V domains shown, also called variant 2-8) VH: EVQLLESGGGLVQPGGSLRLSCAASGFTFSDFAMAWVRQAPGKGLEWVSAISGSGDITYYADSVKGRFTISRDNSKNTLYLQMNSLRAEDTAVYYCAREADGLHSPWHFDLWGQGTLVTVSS VL: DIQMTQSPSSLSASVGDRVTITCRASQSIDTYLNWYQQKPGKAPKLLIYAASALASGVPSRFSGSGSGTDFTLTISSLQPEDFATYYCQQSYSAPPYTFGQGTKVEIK here.
32.4

These measurements were taken from patent US20210355194A1.
